# subjectOfTest: human CD33 N20L (human, UniProt P20138 18-364)
# Sequence (P20138 18-364 N20L limits assumed): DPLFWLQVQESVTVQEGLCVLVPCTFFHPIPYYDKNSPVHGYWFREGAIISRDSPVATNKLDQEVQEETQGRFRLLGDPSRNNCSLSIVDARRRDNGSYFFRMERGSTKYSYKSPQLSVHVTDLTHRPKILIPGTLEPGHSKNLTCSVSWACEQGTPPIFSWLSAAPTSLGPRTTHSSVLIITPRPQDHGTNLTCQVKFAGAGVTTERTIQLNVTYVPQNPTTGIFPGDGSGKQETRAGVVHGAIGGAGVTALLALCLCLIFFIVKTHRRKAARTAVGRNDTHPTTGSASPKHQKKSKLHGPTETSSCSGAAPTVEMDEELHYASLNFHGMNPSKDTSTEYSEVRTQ
# assayText: flow cytometry, mutant on cells, IgG
measurementName: Mean % WT Binding (% WT binding)

binder	resultUnit	dataValue
Refmab #4 (antibody, human IgG1, V domains shown, Tested in IgG format; human IgG1 Fc silent (PG-LALA)) VH: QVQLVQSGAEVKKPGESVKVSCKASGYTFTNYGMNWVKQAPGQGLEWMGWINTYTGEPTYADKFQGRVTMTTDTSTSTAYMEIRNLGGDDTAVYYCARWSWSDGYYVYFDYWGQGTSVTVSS VL: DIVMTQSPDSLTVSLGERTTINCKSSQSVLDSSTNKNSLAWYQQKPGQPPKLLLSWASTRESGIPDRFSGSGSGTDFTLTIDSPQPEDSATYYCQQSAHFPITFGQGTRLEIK	% WT binding	89.8
